Recorded values, source PubChem BioAssay (NCI).

Tested on: HOP-62 NSCLC
Assay: NCI-60 one-dose screen, 48 h (100 = growth as untreated, 0 = no growth, -100 = all killed)
Conditions: 10 µM unless noted
This is part of a sample that, as a whole, favours compounds with a hit. Of some 83,000 tested, about 20% had one in any assay.
recorded endpoint: growth (%)
The response must be a number in % with no trailing unit.

Record excerpt, results attached:
COC[C@H](C)n1c(C2CCOCC2)nc2cnc3cc(-c4c(C)noc4C)c(OC)cc3c21	39.8
O=C(O)c1ccc(NC(=O)c2ccc(-c3cccc([N+](=O)[O-])c3)o2)cc1	103
CC(=O)O[C@H]1CC[C@]2(C)[C@H]3CC=C4[C@@H]5CC(C)(C)CC[C@]5(C(=O)NCCNCCNCCN)CC[C@@]4(C)[C@]3(C)CC[C@H]2C1(C)C	87.5

Now for the molecule whose growth we want.
What the record says about CCOC(=O)c1csc(NC(=O)COc2cccc(/C=C3\CSc4ccccc4C3=O)c2)n1 : growth is 80.1
